# System: U-251
# assayExplanation: NCI tumour cell line growth inhibition, 48 h
Activity calls are given as the source filed them. Rule as the data show it: active = GI50 up to about 1.1 µM and inactive = higher.
Outcomes: yes (active), no (inactive)

compound	targetUnderTest	labelClass
O=C1NN=C2C=C(c3ccc(Cl)cc3)CC(c3cccc(Cl)c3)C12 (centres undefined)	U-251	no
Oc1cc(-c2c[nH]c3ccccc23)nc2cc3c(cc12)OCO3	U-251	no
CC1OC(O[C@@H]2C=C3CC[C@@H]4[C@H](CC[C@]5(C)[C@@H](c6ccc(=O)oc6)CC[C@]45O)[C@@]3(C)CC2)C(O)C(O)C1O (some centres undefined)	U-251	yes
O=C1Oc2ccccc2C(=O)/C1=C1/C=C(c2ccccc2)SS1	U-251	no
O=C(c1ccccc1)c1c(CC(O)c2cccnc2)n(C(=O)c2ccccc2)c2ccccc12 (centres undefined)	U-251	no
O=C1Nc2ccccc2/C1=N/NC(=S)N1CCCC1	U-251	yes
O=S1(=O)OCCOS(=O)(=O)C1C1c2ccccc2-c2ccccc21	U-251	no
Cc1ccccc1C1CC(=O)CC(c2ccccc2C)C12C(=O)NC(=O)NC2=O (centres undefined)	U-251	no
COc1cc([C@@]23OC[C@@H]4[C@@H](OC[C@@H]42)c2cc4c(cc23)OCO4)cc(OC)c1OC	U-251	yes

The reported numbers originate from ChEMBL document CHEMBL1201862.
